- targetOfAssay: CYP2C9 (Homo sapiens, UniProt P11712)
- Construct: purchased Promega; host or cells: baculovirus-infected insect cells
- Sequence (P11712 whole entry): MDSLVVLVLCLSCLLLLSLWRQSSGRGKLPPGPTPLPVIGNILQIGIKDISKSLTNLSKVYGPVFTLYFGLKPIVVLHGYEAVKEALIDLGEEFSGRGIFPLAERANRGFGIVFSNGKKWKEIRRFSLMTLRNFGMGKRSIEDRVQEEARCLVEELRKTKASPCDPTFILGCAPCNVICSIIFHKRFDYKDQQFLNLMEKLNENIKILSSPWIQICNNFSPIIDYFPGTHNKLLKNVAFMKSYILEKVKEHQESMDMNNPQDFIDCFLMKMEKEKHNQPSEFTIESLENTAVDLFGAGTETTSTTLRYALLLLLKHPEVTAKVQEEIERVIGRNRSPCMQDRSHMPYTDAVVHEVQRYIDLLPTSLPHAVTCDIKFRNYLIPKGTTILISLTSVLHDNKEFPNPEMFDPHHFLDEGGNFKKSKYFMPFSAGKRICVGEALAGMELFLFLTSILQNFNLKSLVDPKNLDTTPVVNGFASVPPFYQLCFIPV
- assayComment: Cytochrome P450 assay (P450-Glo), isoform 2C9
- Assay type: in vitro ADME
- protocolConditions: read-out: CYP 2C9 IC50
pIC50: −log10 of the molar value.
Reported pIC50 values for the following molecules.

{"columns": ["molecule", "pIC50"],
 "data": [
  ["Nc1nc2ccc(CN(Cc3ccc(Cl)c(Cl)c3)C3CC3)cc2s1", 5.06],
  ["Nc1nc2ccc(C(=O)NCCc3ccc(Cl)cc3)cc2s1", 5.02],
  ["Nc1nc2ccc(C(=O)NCCc3ccc(Br)cc3)cc2s1", 5.44],
  ["Nc1nc2ccc(C(=O)NCCc3cccc(Br)c3)cc2s1", 4.13],
  ["Nc1nc2ccc(C(=O)N(Cc3ccc(Cl)c(Cl)c3)C3CC3)cc2s1", 4.32],
  ["Nc1nc2ccc(C(=O)NCCc3ccccc3)cc2s1", 4.42],
  ["Nc1nc2ccccc2n1Cc1ccc(Cl)c(Cl)c1 [I, reference compound]", 5.38],
  ["Nc1nc2ccc(C(=O)N(CCc3ccc(Cl)c(Cl)c3)C3CC3)cc2s1", 5.30]
]}
